# credit: patent US20260306502A1

Experiment: Metabolic stability assay in rat liver microsomes
Type: in vitro ADME
Settings: rat, liver microsomes, rat liver microsomes; read-out: rat microsome metabolic stability, half-life
Property: half-life at 1 µM

>>> print(df.to_string())
                           substance_smiles           property  result
0  CN(C)CCc1cc(Cl)cc(C(=O)Nc2nc3ccc(C(F)(F)F)cc3s2)c1O  half-life at 1 µM  35.5 h

---

Test: PO pharmacokinetic study, oral exposure (Example B3)
Type: in vivo
Settings: blood, po, 10 mg/kg, 24 hr
Property: AUC(0-t) at 24 h (ng·h/mL)

In [3]: df
Out[3]:
                                   compound  unit_abbrev  result_number
0  Cc1cc(Cl)cc(C(=O)Nc2nc3c(CN4CCN(C)CC4)cc(C(F)(F)F)cc3s2)c1O      ng·h/mL          58400
1  Cc1cc(Cl)cc(C(=O)Nc2nc3ccc(C(F)(F)F)cc3s2)c1O [Compound 28 in U.S. Pat. No. 10,227,315, reference compound]      ng·h/mL           4410
2  COCc1cc(Cl)cc(C(=O)Nc2nc3ccc(C(F)(F)F)cc3s2)c1O      ng·h/mL         180000
3  COCCOCc1cc(Cl)cc(C(=O)Nc2nc3ccc(C(F)(F)F)cc3s2)c1O      ng·h/mL         485000

---

Assay: Metabolic stability assay in rat liver microsomes
Assay type: in vitro ADME
Conditions: rat, liver microsomes, 1 μM compound, 0.5 mg/ml microsomal protein, 37° C.; read-out: Metabolic stability half-life (T1/2, min, rat liver microsome)
Property: log10 of half-life at 1 µM (log10 of the value in h)

In [3]: df
Out[3]:
                                   compound                    property  result_number
0  O=C(Nc1nc2ccc(C(F)(F)F)cc2s1)c1cc(Cl)cc(CN2CCCCC2)c1O [drawing 264]  log10 of half-life at 1 µM           0.18
1  CN(C)CCc1cc(Cl)cc(C(=O)Nc2nc3ccc(C(F)(F)F)cc3s2)c1O  log10 of half-life at 1 µM           1.55
2  CN(C)Cc1cc(Cl)cc(C(=O)Nc2nc3ccc(C(F)(F)F)cc3s2)c1O  log10 of half-life at 1 µM           1.17
3  COCCN(CCOC)Cc1cc(Cl)cc(C(=O)Nc2nc3ccc(C(F)(F)F)cc3s2)c1O [drawing 263]  log10 of half-life at 1 µM          -0.33
4  O=C(Nc1nc2ccc(C(F)(F)F)cc2s1)c1cc(Cl)cc(CN2CCOCC2)c1O  log10 of half-life at 1 µM           0.18

---

Tested on: high-fat diet (HFD)-induced diabetic mouse model
Test: Efficacy in high-fat diet (HFD)-induced diabetic/fatty liver mouse model
Type: in vivo
Settings: Mus musculus; HFD model, oral daily gavage; read-out: Efficacious dosage to reduce blood glucose in mouse models, oral daily gavage
Experimental: For HFD induced diabetic mouse model, C57Bl6 mice (male, n=6) were induced to obese and diabetic conditions by feeding high-fat diet (HFD, 60% fat calories, Research Diet, Inc. New Brunswick, NJ) for 3-4 months. […] During the 3-week period, the mice continued feeding HFD. […] The blood glucose levels were measured after an overnight fast, plasma insulin levels were tested after 5-6 hours fast, and the glycated HbA1c levels were determined in whole blood samples. […]
Property: minimal effective dose (mg/kg)

                                   compound                     target_or_test_system                property  result_number
0  C[C@@H]1CN(Cc2cc(Cl)cc(C(=O)Nc3nc4ccc(C(F)(F)F)cc4s3)c2O)C[C@H](C)O1.Cl  high-fat diet (HFD)-induced diabetic mouse model  minimal effective dose              1
1  O=C(Nc1nc2ccc(C(F)(F)F)cc2s1)c1cc(Cl)cc(C2CCCO2)c1O (stereo not shown)  high-fat diet (HFD)-induced diabetic mouse model  minimal effective dose            2.5
2  Cl.O=C(Nc1nc2ccc(C(F)(F)F)cc2s1)c1cc(Cl)cc(CN2CCOCC2)c1O  high-fat diet (HFD)-induced diabetic mouse model  minimal effective dose              1
3  O=C(Nc1nc2ccc(C(F)(F)F)cc2s1)c1cc(Cl)cc(CN2CCCC2)c1O  high-fat diet (HFD)-induced diabetic mouse model  minimal effective dose             10
